Value source: patent US20250197372A1

- assayed_target: recombinant human GBA (beta-glucocerebrosidase) (Homo sapiens)
- Sequence (P04062 40-536): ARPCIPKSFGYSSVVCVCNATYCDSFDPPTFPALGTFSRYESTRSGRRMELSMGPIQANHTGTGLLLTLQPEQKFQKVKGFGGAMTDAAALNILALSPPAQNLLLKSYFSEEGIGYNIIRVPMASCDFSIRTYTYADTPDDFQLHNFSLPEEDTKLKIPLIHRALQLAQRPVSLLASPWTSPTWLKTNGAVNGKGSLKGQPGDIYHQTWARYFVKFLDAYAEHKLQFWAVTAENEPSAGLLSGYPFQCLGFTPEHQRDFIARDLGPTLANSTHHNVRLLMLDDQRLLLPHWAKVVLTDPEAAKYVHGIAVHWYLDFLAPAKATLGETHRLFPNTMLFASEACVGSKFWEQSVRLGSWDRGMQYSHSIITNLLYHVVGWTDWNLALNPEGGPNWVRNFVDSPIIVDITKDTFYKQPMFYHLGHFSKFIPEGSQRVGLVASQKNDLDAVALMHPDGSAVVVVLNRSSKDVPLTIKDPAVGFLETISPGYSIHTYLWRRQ
- assay_overview: Beta-glucocerebrosidase (GBA, glucosylceramidase) assay (4-methylumbelliferyl-beta-D-pyranoside substrate, fluorescence)
Reported pIC50 values for the following compounds.
Would you please state pIC50, meaning minus log10 of the concentration in mol/L, as a bare number?

Below, 8 compounds whose answers are already recorded.
compound	assayed_target	pIC50
O=Cc1cc(NCCCCCCN2C[C@H](O)[C@@H](O)[C@H](O)[C@H]2CO)cc(-c2ncccn2)c1 [Compound 1129]	recombinant human GBA (beta-glucocerebrosidase) (Homo sapiens)	5.56
OC[C@@H]1[C@@H](O)[C@H](O)[C@@H](O)CN1CCc1ccc(CCNc2cc(Cl)cc(C3=COCCO3)c2)cc1 [Compound 1161]	recombinant human GBA (beta-glucocerebrosidase) (Homo sapiens)	5.55
OC[C@@H]1[C@@H](O)[C@H](O)[C@@H](O)CN1CCCCCCNc1ccc(-c2cccnn2)cc1Cl [Compound 1202]	recombinant human GBA (beta-glucocerebrosidase) (Homo sapiens)	5.52
OC[C@@H]1[C@@H](O)[C@H](O)[C@@H](O)CN1Cc1ccc(CNc2ccc(-c3ncccn3)cc2)cc1 [Compound 1096]	recombinant human GBA (beta-glucocerebrosidase) (Homo sapiens)	4.75
OC[C@@H]1[C@@H](O)[C@H](O)[C@@H](O)CN1CCc1ccc(CCNc2cc(Cl)cc(-c3noc(C4CCC4)n3)c2)cc1 [Compound 1122]	recombinant human GBA (beta-glucocerebrosidase) (Homo sapiens)	8.22
[N-]=[N+]=Nc1ccc(NCCc2ccccc2CCN2C[C@H](O)[C@@H](O)[C@H](O)[C@H]2CO)c([N+](=O)[O-])c1 [Compound 1249]	recombinant human GBA (beta-glucocerebrosidase) (Homo sapiens)	6.49
COc1cc(Cc2ccccc2)cc(NCCCCCCN2C[C@H](O)[C@@H](O)[C@H](O)[C@H]2CO)c1 [Compound 1145]	recombinant human GBA (beta-glucocerebrosidase) (Homo sapiens)	6.34
Cc1cc(NCc2cnc(CN3C[C@H](O)[C@@H](O)[C@H](O)[C@H]3CO)cn2)cc(-c2ccc[nH]2)c1 [Compound 1330]	recombinant human GBA (beta-glucocerebrosidase) (Homo sapiens)	4.88

// next item, pIC50 requested
Entry Cc1cc(Br)cc(NCc2cccc(CN3C[C@H](O)[C@@H](O)[C@H](O)[C@H]3CO)c2)c1 [Compound 1021] has what pIC50?
4.59

* * *

- assayed_target: rat maltase (partially purified alpha-glucosidase from intestinal rat powder)
- assay_overview: Intestinal alpha-glucosidase assay, maltose substrate (Glucose GO Kit)
measured_quantity: IC50 (nM)
Just the number in nM, nothing appended.

Known results for compounds:
smiles_text	IC50, nM
N#Cc1cc(Cl)cc(NCCc2ccc(CCN3C[C@H](O)[C@@H](O)[C@H](O)[C@H]3CO)cc2)c1	130
NC(=O)c1cc(-c2ncccn2)ccc1NCCCCCCN1C[C@H](O)[C@@H](O)[C@H](O)[C@H]1CO	2
OC[C@@H]1[C@@H](O)[C@H](O)[C@@H](O)CN1CCc1ccc(CCNc2cc(Cl)cc(-c3ncccn3)c2)cc1	138
OC[C@@H]1[C@@H](O)[C@H](O)[C@@H](O)CN1CCCCCCNc1ccc(-c2ncccn2)cc1Cl	1
OC[C@@H]1[C@@H](O)[C@H](O)[C@@H](O)CN1Cc1cccc(CNc2ccc(-c3ccc[nH]3)cc2)c1	14

Would you kindly look at the next entry?
Report IC50 for Nc1ccc(NCCn2cc(CCN3C[C@H](O)[C@@H](O)[C@H](O)[C@H]3CO)nn2)c([N+](=O)[O-])c1Cl please.
777

* * *

- assayed_target: rat maltase (partially purified alpha-glucosidase from intestinal rat powder)
- assay_overview: Intestinal alpha-glucosidase assay, maltose substrate (Glucose GO Kit)
measured_quantity: IC50 (nM)
Give the quantity in nM, number only.

Would you please look over these solved cases?
smiles_text	measured_quantity	quantitative_readout
COc1cc(NCCCCCCN2C[C@H](O)[C@@H](O)[C@H](O)[C@H]2CO)cc(-c2cnccn2)c1	IC50	9
Cc1cc(NCc2ccc(CN3C[C@H](O)[C@@H](O)[C@H](O)[C@H]3CO)cc2)cc(N2CCOCC2)c1	IC50	13
O=[N+]([O-])c1cc(CCO)ccc1NCCCCCCN1C[C@H](O)[C@@H](O)[C@H](O)[C@H]1CO	IC50	11
N#Cc1ccc(NCCCCCCN2C[C@H](O)[C@@H](O)[C@H](O)[C@H]2CO)c([N+](=O)[O-])c1	IC50	17

Proceed to the following item.
IC50 lookup needed for OC[C@@H]1[C@@H](O)[C@H](O)[C@@H](O)CN1Cc1ccc(CNc2cc(-c3cccnn3)cc(C3CC3)c2)cc1 , thanks.
9

* * *

- assayed_target: recombinant alpha-glucosidase I (human full-length glucosidase I, Glu 1) (Homo sapiens)
- Construct: 6-His (C); made in house; host or cells: HEK-293T cells transduced with BacMam virus (virus raised in Sf9)
- Sequence (Q13724 whole entry): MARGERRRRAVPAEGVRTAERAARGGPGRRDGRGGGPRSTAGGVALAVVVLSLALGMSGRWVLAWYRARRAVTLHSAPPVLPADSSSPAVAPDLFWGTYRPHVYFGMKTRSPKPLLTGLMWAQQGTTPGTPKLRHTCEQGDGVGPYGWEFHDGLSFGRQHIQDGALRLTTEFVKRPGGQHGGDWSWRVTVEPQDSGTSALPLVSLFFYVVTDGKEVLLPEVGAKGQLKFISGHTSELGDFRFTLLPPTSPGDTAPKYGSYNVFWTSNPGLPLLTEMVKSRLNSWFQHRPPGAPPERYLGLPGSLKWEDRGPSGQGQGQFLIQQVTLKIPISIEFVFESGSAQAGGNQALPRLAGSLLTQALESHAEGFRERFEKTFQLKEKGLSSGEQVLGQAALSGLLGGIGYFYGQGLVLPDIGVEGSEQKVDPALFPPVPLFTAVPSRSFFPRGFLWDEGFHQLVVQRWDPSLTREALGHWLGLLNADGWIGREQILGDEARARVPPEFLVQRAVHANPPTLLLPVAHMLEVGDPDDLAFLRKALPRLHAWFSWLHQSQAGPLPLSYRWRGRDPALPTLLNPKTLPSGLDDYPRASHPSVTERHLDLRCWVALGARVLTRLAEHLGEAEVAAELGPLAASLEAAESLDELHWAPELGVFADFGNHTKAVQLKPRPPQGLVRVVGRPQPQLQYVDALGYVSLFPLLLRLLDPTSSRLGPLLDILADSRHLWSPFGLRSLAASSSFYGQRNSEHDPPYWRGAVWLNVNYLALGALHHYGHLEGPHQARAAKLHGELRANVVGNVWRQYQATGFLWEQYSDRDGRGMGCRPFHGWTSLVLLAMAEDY
- assay_overview: Alpha-glucosidase I assay (Amplex Red glucose detection, synthetic trisaccharide substrate)
- Format: biochemical
- experimental_context: Glucosidase 1; read-out: Glu 1 IC50
measured_quantity: IC50 (nM)
The figure you give is taken to be in nM; do not add the unit.

Please review the entries below; each comes with its answer.
compound	assayed_target	output_unit	IC50
CN(Cc1cccc(CN2C[C@H](O)[C@@H](O)[C@H](O)[C@H]2CO)c1)c1ccc(CN2CCCO2)cc1[N+](=O)[O-] [Compound 1020]	recombinant alpha-glucosidase I (human full-length glucosidase I, Glu 1) (Homo sapiens)	nM	118
[N-]=[N+]=Nc1ccc(NCC[C@H]2CC[C@H](CCN3C[C@H](O)[C@@H](O)[C@H](O)[C@H]3CO)CC2)c([N+](=O)[O-])c1 [Compound 1107]	recombinant alpha-glucosidase I (human full-length glucosidase I, Glu 1) (Homo sapiens)	nM	107
COc1cc(NCCCCCCN2C[C@H](O)[C@@H](O)[C@H](O)[C@H]2CO)cc(-c2cnccn2)c1 [Compound 1197]	recombinant alpha-glucosidase I (human full-length glucosidase I, Glu 1) (Homo sapiens)	nM	140
OC[C@@H]1[C@@H](O)[C@H](O)[C@@H](O)CN1CCCCCCNc1cc(Cl)cc(-c2ncco2)c1 [Compound 1211]	recombinant alpha-glucosidase I (human full-length glucosidase I, Glu 1) (Homo sapiens)	nM	112

# lookup: IC50 of Cc1nc(=O)c2cc(-c3ncccn3)ccc2n1CCCCCCN1C[C@H](O)[C@@H](O)[C@H](O)[C@H]1CO [Compound 1246]
112

* * *

- assayed_target: rat sucrase (partially purified alpha-glucosidase from intestinal rat powder) (Rattus norvegicus)
- Sequence (P23739 whole entry): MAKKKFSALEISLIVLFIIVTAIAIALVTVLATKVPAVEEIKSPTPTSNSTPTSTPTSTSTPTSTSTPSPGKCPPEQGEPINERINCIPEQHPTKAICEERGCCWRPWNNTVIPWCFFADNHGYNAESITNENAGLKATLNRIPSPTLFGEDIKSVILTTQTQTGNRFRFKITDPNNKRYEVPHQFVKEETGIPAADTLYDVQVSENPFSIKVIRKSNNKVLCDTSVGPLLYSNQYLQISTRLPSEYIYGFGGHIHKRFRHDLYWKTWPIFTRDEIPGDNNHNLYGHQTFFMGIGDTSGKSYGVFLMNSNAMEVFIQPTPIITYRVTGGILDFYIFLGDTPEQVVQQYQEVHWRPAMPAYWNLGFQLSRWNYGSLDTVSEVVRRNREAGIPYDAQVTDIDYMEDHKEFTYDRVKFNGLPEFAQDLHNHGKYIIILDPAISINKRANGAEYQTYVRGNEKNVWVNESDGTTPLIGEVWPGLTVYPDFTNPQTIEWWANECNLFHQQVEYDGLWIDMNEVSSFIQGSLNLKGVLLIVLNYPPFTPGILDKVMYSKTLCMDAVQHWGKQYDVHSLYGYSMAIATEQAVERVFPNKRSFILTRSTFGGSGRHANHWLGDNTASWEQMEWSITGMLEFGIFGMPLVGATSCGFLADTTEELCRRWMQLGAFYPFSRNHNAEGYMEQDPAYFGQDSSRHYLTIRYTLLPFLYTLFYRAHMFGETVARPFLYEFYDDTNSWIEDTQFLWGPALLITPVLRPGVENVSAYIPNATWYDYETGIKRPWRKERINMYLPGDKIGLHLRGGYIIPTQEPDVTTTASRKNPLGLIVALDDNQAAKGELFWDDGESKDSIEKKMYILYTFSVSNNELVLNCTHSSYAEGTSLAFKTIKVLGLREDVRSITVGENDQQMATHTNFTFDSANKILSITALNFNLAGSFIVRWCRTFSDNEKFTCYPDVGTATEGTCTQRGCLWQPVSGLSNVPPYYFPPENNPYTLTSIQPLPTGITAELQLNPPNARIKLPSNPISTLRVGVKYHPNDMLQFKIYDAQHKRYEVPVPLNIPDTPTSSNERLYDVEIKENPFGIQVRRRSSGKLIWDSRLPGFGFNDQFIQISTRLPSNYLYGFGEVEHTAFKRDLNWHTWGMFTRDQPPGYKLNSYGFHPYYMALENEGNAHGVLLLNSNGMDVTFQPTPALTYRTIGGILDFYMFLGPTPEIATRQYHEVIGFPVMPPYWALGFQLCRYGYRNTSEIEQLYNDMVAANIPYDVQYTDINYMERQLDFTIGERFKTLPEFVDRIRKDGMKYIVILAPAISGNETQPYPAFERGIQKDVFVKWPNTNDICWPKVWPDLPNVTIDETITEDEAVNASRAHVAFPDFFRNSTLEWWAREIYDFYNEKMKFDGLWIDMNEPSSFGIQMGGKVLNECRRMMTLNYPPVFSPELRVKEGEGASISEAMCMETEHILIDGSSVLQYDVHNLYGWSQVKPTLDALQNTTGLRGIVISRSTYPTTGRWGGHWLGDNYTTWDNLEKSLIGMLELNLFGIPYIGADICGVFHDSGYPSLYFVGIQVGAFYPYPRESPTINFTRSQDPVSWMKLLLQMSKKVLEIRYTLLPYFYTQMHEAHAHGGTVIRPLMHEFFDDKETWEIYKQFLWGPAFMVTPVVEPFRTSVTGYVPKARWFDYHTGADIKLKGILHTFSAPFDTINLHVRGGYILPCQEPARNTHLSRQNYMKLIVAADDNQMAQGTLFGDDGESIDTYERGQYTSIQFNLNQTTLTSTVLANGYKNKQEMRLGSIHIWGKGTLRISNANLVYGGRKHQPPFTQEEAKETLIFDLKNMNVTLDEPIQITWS
pIC50: −log10 of the molar value.
Mark n for pIC50 values under 6, and y for everything at or above.

Here are 5 molecules together with their reported answers.
smiles_text	discrete_label
Cc1cc(NCc2cccc(CN3C[C@H](O)[C@@H](O)[C@H](O)[C@H]3CO)n2)cc(-c2ccc[nH]2)c1	y
CN(C)Cc1ccc(NCCCCCCN2C[C@H](O)[C@@H](O)[C@H](O)[C@H]2CO)c(C(=O)O)c1	y
COc1cc(NCCCCCCN2C[C@H](O)[C@@H](O)[C@H](O)[C@H]2CO)cc(-c2ccccc2)c1	y
CS(=O)(=O)c1cc(Br)cc(NCc2ccc(CN3C[C@H](O)[C@@H](O)[C@H](O)[C@H]3CO)cc2)c1	y
[N-]=[N+]=Nc1ccc(N2CC(OCCN3C[C@H](O)[C@@H](O)[C@H](O)[C@H]3CO)C2)c([N+](=O)[O-])c1	y

Say whether CS(=O)(=O)c1cc(NCc2cccc(CN3C[C@H](O)[C@@H](O)[C@H](O)[C@H]3CO)c2)cc(N2CCOCC2)c1 shows pIC50 of 6 or more.
y

Try COc1cc(NCCc2ccc(CCN3C[C@H](O)[C@@H](O)[C@H](O)[C@H]3CO)cc2)cc(-c2ccco2)c1 next.
n

Repeat for the following molecule: Cc1nc(=O)c2cc(-c3ncccn3)ccc2n1CCCCCCN1C[C@H](O)[C@@H](O)[C@H](O)[C@H]1CO
n
